B1: H2-Kb / B7 (parent)
chain 1: GQQVQQSPTSLVLQEGENAELQCNFSTSLNSMQWFYQRPGGSLVSVFYNPSGTKQSGRLTSTTVIKERRSSLHISSSQITDSGTYLCAMERDMGYKLTFGTGTSLLVDP
chain 2: EAAVTQSPRNKVAVTGGKVTLSCNQTNNHNNMYWYRQDTGHGLRLIHYSYGAGSTEKGDIPDGYKASRPSQENFSLILELATPSQTSVYFCASGDPGDQDTQYFGPGTRLLVL
chain 3: not shown
chain 4: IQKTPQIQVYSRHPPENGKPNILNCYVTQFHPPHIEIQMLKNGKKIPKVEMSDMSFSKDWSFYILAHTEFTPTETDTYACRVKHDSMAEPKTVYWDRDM
chain 5: SIINFEKL

variants of: B1; assay: % of reporter cells activated (NFAT-GFP), raw; conditions: with B7; scale: % of reporter cells activated; also: test concentration or dose not given here
metric: ratio to parent
Simply state the number, no unit and no words.

Please review the entries below; each comes with its answer.
chain 5 N4H
1.49
chain 5 K7A
1.17
chain 5 N4R
1

# input Give reported ratio to parent value for chain 5 I3S
# output 0.646

# input Give reported ratio to parent value for chain 5 I2P
# output 1.72

# input Give reported ratio to parent value for chain 5 N4P
# output 0.877

# input Give reported ratio to parent value for chain 5 K7L
# output 1.32
